# experimental.target: PI3-kinase p110-delta/p85-alpha (Homo sapiens, UniProt O00329)
# Sequence (P27986 whole entry): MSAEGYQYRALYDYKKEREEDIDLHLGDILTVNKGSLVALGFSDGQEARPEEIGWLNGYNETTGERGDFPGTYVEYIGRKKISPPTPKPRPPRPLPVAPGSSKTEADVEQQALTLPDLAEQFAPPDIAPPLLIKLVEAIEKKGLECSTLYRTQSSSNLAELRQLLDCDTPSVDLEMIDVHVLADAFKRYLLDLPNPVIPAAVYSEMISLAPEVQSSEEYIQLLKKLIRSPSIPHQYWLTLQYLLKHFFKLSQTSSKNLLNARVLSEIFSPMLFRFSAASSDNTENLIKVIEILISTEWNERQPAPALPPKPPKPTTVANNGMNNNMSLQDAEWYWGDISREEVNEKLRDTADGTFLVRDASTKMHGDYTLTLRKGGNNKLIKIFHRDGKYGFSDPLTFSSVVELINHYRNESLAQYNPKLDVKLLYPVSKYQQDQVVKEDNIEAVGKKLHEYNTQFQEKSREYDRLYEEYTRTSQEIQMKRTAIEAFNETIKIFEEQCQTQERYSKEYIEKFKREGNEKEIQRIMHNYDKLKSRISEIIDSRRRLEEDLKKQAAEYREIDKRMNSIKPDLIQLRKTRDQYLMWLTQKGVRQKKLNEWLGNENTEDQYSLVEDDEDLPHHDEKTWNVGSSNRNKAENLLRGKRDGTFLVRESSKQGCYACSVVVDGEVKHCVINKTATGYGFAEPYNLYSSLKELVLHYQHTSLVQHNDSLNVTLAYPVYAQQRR
# Sequence (O00329 whole entry): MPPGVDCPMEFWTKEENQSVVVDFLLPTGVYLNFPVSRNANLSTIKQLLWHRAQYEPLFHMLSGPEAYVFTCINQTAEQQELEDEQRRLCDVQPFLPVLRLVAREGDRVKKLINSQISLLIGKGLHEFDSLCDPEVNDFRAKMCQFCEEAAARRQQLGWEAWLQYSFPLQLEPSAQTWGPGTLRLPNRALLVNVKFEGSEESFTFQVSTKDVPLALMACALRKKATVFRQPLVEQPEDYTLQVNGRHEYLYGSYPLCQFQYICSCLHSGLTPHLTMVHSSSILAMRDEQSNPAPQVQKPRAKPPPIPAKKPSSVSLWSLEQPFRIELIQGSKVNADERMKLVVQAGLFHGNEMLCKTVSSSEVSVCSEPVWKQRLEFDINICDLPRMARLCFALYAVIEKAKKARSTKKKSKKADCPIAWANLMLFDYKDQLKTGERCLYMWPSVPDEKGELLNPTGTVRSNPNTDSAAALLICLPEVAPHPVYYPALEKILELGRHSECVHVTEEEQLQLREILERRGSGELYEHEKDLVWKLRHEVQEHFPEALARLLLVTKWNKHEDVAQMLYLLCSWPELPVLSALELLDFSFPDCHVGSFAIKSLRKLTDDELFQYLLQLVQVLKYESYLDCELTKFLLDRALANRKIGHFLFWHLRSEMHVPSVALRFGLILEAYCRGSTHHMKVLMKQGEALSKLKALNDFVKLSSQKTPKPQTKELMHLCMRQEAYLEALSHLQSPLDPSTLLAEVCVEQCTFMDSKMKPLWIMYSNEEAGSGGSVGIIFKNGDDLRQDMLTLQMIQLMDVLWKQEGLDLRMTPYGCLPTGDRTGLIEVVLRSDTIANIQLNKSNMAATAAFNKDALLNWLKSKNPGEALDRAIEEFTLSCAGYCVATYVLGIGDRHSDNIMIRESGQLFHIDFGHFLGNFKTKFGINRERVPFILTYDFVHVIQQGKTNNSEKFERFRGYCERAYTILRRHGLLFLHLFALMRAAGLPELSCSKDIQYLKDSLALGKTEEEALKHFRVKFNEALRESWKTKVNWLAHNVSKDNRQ
# method: Inhibition of N-terminal His6-tagged human recombinant full length PI3Kdelta co-expressed with human recombinant full length P85alpha in baculovirus infected Sf21 cells using PIP2 peptide as substrate incubated for 2 hrs in presence ATP by ADP-Glo Kinase Assay
measured.attribute: Ki (nM)
Express your answer in nM, writing the number without its unit.

Return Ki measured with PI3-kinase p110-delta/p85-alpha (Homo sapiens, UniProt O00329) given this compound: N#Cc1c(N2CCOCC2)sc(-c2nc[nH]n2)c1-c1ccc(NC(=O)Nc2ccccc2Cl)cc1 245

###

The following compounds each carry a recorded IC50 for PI3-kinase p110-alpha/p85-alpha (Homo sapiens, UniProt P42336).
Express your answer in nM, writing the number without its unit.

Return IC50 measured with PI3-kinase p110-alpha/p85-alpha (Homo sapiens, UniProt P42336) given this compound: N#Cc1c(N2CCOCC2)sc(-c2nc[nH]n2)c1-c1ccc(NC(=O)N/N=C/c2ccccn2)cc1 6.5

Return IC50 measured with PI3-kinase p110-alpha/p85-alpha (Homo sapiens, UniProt P42336) given this compound: Cc1ccc(NC(=O)Nc2ccc(-c3c(-c4nc[nH]n4)sc(N4CCOCC4)c3C#N)cc2)cc1 95.8

Return IC50 measured with PI3-kinase p110-alpha/p85-alpha (Homo sapiens, UniProt P42336) given this compound: N#Cc1c(N2CCOCC2)sc(-c2nc[nH]n2)c1-c1ccc(NC(=O)Nc2ccc(F)c(Cl)c2)cc1 407

Return IC50 measured with PI3-kinase p110-alpha/p85-alpha (Homo sapiens, UniProt P42336) given this compound: Cc1cccc(C)c1NC(=O)Nc1ccc(-c2c(-c3nc[nH]n3)sc(N3CCOCC3)c2C#N)cc1 344

Return IC50 measured with PI3-kinase p110-alpha/p85-alpha (Homo sapiens, UniProt P42336) given this compound: N#Cc1ccc(NC(=O)Nc2ccc(-c3c(-c4nc[nH]n4)sc(N4CCOCC4)c3C#N)cc2)cc1 290

###

# Test system: A549
# method: Antiproliferative activity against human A549 cells assessed as reduction in cell viability after 3 days by CellTiter-Glo luminescence assay
# Format: functional, cell-based
# experimental.setup: A549, 72 h
For each record, write down the corresponding pIC50.
Just so you know, pIC50 here is -log10 of the concentration in molar units; reply with that number alone.

Sample N#Cc1ccc(-c2c(-c3ncn[nH]3)sc(N3CCOCC3)c2C#N)c(F)c1 — what was its pIC50? 5.45

Sample N#Cc1c(N2CCOCC2)sc(-c2nc[nH]n2)c1-c1ccc(NC(=O)Nc2ccc(F)cc2)cc1 — what was its pIC50? 5.26

Sample N#Cc1c(N2CCOCC2)sc(-c2nc[nH]n2)c1-c1ccc(NC(=O)N/N=C/c2cccc(O)c2)cc1 — what was its pIC50? 4.90

Sample N#Cc1c(N2CCOCC2)sc(-c2nc[nH]n2)c1-c1ccc(NC(=O)Nc2ccccc2F)cc1 — what was its pIC50? 5.38

Sample N#Cc1c(N2CCOCC2)sc(-c2nc[nH]n2)c1-c1ccc(NC(=O)N/N=C/c2ccccn2)cc1 — what was its pIC50? 4.73

Sample N#Cc1c(N2CCOCC2)sc(-c2nc[nH]n2)c1-c1ccc(NC(=O)N/N=C/c2ccco2)cc1 — what was its pIC50? 4.71

Sample N#Cc1c(N2CCOCC2)sc(-c2nc[nH]n2)c1-c1ccc(NC(=O)Nc2ccccc2Cl)cc1 — what was its pIC50? 5.42

###

# method: Half life in Sprague-Dawley rat at 5 mg/kg, iv measured after 24 hrs by LC-MS/MS analysis
# Assay type: ADME, organism-based
# experimental.setup: in vivo
measured.attribute: half-life (h)
Express your answer in h, writing the number without its unit.

Sample N#Cc1c(N2CCOCC2)sc(-c2nc[nH]n2)c1-c1ccc(NC(=O)Nc2ccccc2Cl)cc1 — what was its half-life? 1.98

###

# method: Clearance in human liver microsomes at 1 uM measured after 60 mins by LC-MS/MS analysis
# Assay type: ADME, Microsome
# experimental.setup: read-out: CLH
measured.attribute: microsomal CLint at 1 µM (µL/min/mg)
Express your answer in µL/min/mg, writing the number without its unit.

Sample N#Cc1c(N2CCOCC2)sc(-c2nc[nH]n2)c1-c1ccc(NC(=O)Nc2ccccc2Cl)cc1 — what was its microsomal CLint at 1 µM? 24.8

###

# Tested on: U-87 MG
# method: Antiproliferative activity against human U87MG cells harboring PTEN deletion assessed as reduction in cell viability after 3 days by CellTiter-Glo luminescence assay
# Type: functional, cell-based, U-87MG ATCC
# experimental.setup: 72 h
For each record, write down the corresponding pIC50.
Just so you know, pIC50 here is -log10 of the concentration in molar units; reply with that number alone.

Sample N#Cc1c(N2CCOCC2)sc(-c2nc[nH]n2)c1-c1ccc(NC(=O)N/N=C/c2ccco2)cc1 — what was its pIC50? 4.91

Sample N#Cc1ccc(-c2c(-c3ncn[nH]3)sc(N3CCOCC3)c2C#N)c(F)c1 — what was its pIC50? 5.64

Sample N#Cc1c(N2CCOCC2)sc(-c2nc[nH]n2)c1-c1ccc(NC(=O)N/N=C/c2ccccn2)cc1 — what was its pIC50? 4.65

###

# experimental.target: PI3-kinase p110-delta/p85-alpha (Homo sapiens, UniProt O00329)
# method: Inhibition of N-terminal His6-tagged human recombinant full length PI3Kdelta co-expressed with human recombinant full length P85alpha in baculovirus infected Sf21 cells using PIP2 peptide as substrate incubated for 2 hrs in presence ATP by ADP-Glo Kinase Assay
measured.attribute: pIC50
Just so you know, pIC50 here is -log10 of the concentration in molar units; reply with that number alone.

Sample N#Cc1ccc(-c2c(-c3nnc[nH]3)sc(N3CCOCC3)c2C#N)c(F)c1 — what was its pIC50? 7.82

Sample N#Cc1c(N2CCOCC2)sc(-c2nc[nH]n2)c1-c1ccc(NC(=O)Nc2ccccc2Cl)cc1 — what was its pIC50? 6.56

Sample N#Cc1c(N2CCOCC2)sc(-c2nc[nH]n2)c1-c1ccc(NC(=O)Nc2ccc(F)cc2)cc1 — what was its pIC50? 6.62

###

# experimental.target: Phosphatidylinositol 4,5-bisphosphate 3-kinase catalytic subunit gamma isoform (Homo sapiens, UniProt P48736)
# Sequence (P48736 whole entry, the tested form may be a part, canonical isoform): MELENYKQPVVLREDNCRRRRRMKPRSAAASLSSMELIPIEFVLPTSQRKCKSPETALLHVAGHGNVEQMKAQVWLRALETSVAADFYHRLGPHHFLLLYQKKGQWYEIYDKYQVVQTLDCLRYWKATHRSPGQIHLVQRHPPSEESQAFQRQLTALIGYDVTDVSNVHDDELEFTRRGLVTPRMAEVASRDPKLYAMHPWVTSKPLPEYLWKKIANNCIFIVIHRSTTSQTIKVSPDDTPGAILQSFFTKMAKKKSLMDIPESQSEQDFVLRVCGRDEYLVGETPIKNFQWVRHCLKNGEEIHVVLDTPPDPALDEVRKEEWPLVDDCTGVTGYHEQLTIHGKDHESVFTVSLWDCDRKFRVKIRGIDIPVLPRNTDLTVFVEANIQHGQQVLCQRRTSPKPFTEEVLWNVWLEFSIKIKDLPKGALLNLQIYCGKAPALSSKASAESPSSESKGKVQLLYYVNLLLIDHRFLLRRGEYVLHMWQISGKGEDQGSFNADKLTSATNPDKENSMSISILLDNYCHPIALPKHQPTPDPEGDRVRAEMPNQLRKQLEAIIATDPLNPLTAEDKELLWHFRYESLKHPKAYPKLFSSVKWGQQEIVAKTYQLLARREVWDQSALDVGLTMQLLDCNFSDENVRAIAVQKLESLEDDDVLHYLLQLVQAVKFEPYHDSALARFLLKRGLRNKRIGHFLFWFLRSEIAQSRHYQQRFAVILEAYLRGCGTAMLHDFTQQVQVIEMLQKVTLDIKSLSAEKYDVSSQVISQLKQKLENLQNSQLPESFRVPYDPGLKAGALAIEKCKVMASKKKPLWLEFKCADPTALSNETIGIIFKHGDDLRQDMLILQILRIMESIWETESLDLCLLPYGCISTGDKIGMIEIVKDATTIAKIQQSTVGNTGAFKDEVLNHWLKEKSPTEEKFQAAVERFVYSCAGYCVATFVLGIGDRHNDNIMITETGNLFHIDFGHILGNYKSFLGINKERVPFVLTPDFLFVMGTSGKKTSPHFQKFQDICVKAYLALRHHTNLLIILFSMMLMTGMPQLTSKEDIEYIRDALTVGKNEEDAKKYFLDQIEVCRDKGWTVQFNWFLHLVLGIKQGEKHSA
# method: Inhibition of GST-tagged human recombinant PI3Kgamma catalytic domain (468 to 1203 residues) expressed in insect cells using PIP2 peptide as substrate incubated for 1 hr in presence ATP by ADP-Glo Kinase Assay
measured.attribute: pIC50
Just so you know, pIC50 here is -log10 of the concentration in molar units; reply with that number alone.

Sample N#Cc1c(N2CCOCC2)sc(-c2nc[nH]n2)c1-c1ccc(NC(=O)Nc2ccccc2Cl)cc1 — what was its pIC50? 6.59

Sample N#Cc1ccc(-c2c(-c3nnc[nH]3)sc(N3CCOCC3)c2C#N)c(F)c1 — what was its pIC50? 7.22

Sample N#Cc1c(N2CCOCC2)sc(-c2nc[nH]n2)c1-c1ccc(NC(=O)Nc2ccccc2F)cc1 — what was its pIC50? 6.52

Sample N#Cc1c(N2CCOCC2)sc(-c2nc[nH]n2)c1-c1ccc(NC(=O)N/N=C/c2ccco2)cc1 — what was its pIC50? 6.69

Sample N#Cc1c(N2CCOCC2)sc(-c2nc[nH]n2)c1-c1ccc(NC(=O)N/N=C/c2cccc(O)c2)cc1 — what was its pIC50? 6.36

Sample N#Cc1c(N2CCOCC2)sc(-c2nc[nH]n2)c1-c1ccc(NC(=O)Nc2ccc(F)cc2)cc1 — what was its pIC50? 6.54

Sample N#Cc1c(N2CCOCC2)sc(-c2nc[nH]n2)c1-c1ccc(NC(=O)N/N=C/c2ccccn2)cc1 — what was its pIC50? 6.56

###

# Tested on: NCI-H460
# method: Antiproliferative activity against human NCI-H460 cells harboring PIK3CA mutation assessed as reduction in cell viability after 3 days by CellTiter-Glo luminescence assay
# Assay type: functional, cell-based
# experimental.setup: NCI-H460, 72 h
For each record, write down the corresponding pIC50.
Just so you know, pIC50 here is -log10 of the concentration in molar units; reply with that number alone.

Return pIC50 measured with NCI-H460 given this compound: N#Cc1c(N2CCOCC2)sc(-c2nc[nH]n2)c1-c1ccc(NC(=O)Nc2ccccc2F)cc1 6.40

Return pIC50 measured with NCI-H460 given this compound: N#Cc1c(N2CCOCC2)sc(-c2nc[nH]n2)c1-c1ccc(NC(=O)N/N=C/c2cccc(O)c2)cc1 5.86

Return pIC50 measured with NCI-H460 given this compound: N#Cc1c(N2CCOCC2)sc(-c2nc[nH]n2)c1-c1ccc(NC(=O)N/N=C/c2ccccn2)cc1 5.57

Return pIC50 measured with NCI-H460 given this compound: N#Cc1c(N2CCOCC2)sc(-c2nc[nH]n2)c1-c1ccc(NC(=O)N/N=C/c2ccco2)cc1 5.91

Return pIC50 measured with NCI-H460 given this compound: N#Cc1c(N2CCOCC2)sc(-c2nc[nH]n2)c1-c1ccc(NC(=O)Nc2ccc(F)cc2)cc1 6.23

Return pIC50 measured with NCI-H460 given this compound: N#Cc1ccc(-c2c(-c3ncn[nH]3)sc(N3CCOCC3)c2C#N)c(F)c1 6.92

Return pIC50 measured with NCI-H460 given this compound: N#Cc1c(N2CCOCC2)sc(-c2nc[nH]n2)c1-c1ccc(NC(=O)Nc2ccccc2Cl)cc1 6.70
